Target: Amine oxidase [flavin-containing] B (Homo sapiens)
Sequence (P27338 whole entry): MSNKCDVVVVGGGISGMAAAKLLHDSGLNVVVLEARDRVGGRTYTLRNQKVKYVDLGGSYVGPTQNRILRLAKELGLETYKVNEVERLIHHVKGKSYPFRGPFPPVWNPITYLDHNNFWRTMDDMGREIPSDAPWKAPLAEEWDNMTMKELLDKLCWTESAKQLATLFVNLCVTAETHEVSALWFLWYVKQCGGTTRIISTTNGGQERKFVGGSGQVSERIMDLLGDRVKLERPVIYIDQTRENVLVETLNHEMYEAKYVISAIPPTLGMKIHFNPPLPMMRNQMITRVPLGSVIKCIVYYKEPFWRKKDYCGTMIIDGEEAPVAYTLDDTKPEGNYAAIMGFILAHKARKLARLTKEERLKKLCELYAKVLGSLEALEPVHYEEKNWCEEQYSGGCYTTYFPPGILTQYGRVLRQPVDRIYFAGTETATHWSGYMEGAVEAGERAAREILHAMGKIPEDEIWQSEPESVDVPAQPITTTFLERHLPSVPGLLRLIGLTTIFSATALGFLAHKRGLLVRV
Test: Competitive inhibition of human MAO-B
propertyMeasured: Ki

So, `CC1=C(C)C(=O)c2cc(C)ccc2C1=O` ? Its Ki was 3 µM

====

Biological target: Amine oxidase [flavin-containing] A (Homo sapiens)
Test: Competitive inhibition of human recombinant MAO-A expressed in baculovirus infected insect cells using p-tyramine as substrate by Lineweaver-Burk plot analysis
propertyMeasured: pKi
Value format note: pKi is -log10 of concentration (mol/L); just state the number.

So, CC1=CC(=O)c2ccccc2C1=O [MENADIONE] ? Its pKi was 4.59

====

Molecular target: Amine oxidase [flavin-containing] A (Homo sapiens)
Sequence (P21397 whole entry): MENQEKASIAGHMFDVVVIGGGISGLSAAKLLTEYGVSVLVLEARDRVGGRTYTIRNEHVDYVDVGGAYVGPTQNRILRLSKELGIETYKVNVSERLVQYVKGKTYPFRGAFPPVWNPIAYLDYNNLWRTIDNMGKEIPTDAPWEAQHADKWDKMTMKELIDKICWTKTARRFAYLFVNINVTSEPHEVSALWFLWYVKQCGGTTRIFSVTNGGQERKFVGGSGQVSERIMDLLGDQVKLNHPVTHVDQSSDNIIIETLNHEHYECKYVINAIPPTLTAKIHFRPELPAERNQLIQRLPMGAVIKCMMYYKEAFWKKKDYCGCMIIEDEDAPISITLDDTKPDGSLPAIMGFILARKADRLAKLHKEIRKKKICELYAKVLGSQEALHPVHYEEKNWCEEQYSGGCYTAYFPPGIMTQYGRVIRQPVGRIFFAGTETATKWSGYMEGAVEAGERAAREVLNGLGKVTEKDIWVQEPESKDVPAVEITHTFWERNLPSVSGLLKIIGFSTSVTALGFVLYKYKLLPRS
Assay: Noncompetitive inhibition of human recombinant MAO-A expressed in baculovirus infected insect cells using p-tyramine as substrate by Lineweaver-Burk plot analysis
propertyMeasured: Ki (µM)
Output spec: scalar in µM, unitless text.

So, O=C1C=CC(=O)c2ccccc21 [NAPHTHOQUINONE] ? Its Ki was 7.7
